Biological target: hMAO-B (Homo sapiens, UniProt P27338)
Sequence (P27338 1-520): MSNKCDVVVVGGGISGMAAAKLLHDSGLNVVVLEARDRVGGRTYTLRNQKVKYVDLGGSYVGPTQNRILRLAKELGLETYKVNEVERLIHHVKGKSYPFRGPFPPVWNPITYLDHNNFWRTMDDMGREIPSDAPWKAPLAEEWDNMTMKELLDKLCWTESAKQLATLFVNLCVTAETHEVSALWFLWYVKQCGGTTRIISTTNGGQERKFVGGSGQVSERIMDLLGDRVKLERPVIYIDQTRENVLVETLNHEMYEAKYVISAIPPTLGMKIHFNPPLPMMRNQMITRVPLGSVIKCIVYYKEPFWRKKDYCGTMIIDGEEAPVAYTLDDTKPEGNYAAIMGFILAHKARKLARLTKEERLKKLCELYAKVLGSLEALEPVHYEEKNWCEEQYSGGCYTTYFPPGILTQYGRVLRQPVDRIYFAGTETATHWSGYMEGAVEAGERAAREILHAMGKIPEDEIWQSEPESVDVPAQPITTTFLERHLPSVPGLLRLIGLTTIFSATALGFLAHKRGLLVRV
Assay: hMAO inhibition assay (Amplex Red fluorescence), hMAO-B, benzylamine substrate
Assay type: biochemical
Details: tested concentration 1 µM
measured_endpoint: inhibition at 1 µM (%)
Write the number in % without appending the unit.

Please review the following examples before continuing.
{"input_smiles": "O=C(/C=C/c1ccc2c(c1)OCCO2)c1ccc(Cl)cc1", "units_of_measure": "%", "inhibition at 1 µM": 69.9}
{"input_smiles": "O=C(/C=C/c1ccc2c(c1)OCCO2)c1ccccc1Cl", "units_of_measure": "%", "inhibition at 1 µM": 92.4}
{"input_smiles": "O=C(/C=C/c1ccc2c(c1)OCCO2)c1ccc(Cl)cc1O", "units_of_measure": "%", "inhibition at 1 µM": 62.3}

Item: `O=C(/C=C/c1ccc2c(c1)OCCO2)c1cc(Br)ccc1O` | inhibition at 1 µM: 77.1
